# Assayed System: human SLC6A19 (Homo sapiens)
# Construct: expressed in transfected cells
# Sequence (Q695T7 whole entry): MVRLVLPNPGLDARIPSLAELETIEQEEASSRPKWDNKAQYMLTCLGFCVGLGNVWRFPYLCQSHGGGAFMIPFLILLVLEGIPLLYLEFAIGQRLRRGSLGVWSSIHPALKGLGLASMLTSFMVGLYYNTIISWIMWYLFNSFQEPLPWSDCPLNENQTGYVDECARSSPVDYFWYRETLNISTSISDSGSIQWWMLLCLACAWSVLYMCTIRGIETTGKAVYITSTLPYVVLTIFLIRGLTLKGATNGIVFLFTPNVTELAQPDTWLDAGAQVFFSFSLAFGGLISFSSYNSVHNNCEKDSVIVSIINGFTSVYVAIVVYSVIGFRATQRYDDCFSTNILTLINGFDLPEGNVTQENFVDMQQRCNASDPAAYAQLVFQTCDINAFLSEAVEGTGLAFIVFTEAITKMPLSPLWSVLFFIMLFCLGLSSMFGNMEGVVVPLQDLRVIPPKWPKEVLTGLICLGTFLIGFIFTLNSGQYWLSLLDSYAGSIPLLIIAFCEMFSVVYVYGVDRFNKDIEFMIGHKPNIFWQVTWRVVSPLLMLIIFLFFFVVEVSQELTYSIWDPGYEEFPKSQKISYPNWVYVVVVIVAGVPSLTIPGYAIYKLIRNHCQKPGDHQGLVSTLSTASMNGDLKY
# Sequence (Q9HBJ8 15-222 partner): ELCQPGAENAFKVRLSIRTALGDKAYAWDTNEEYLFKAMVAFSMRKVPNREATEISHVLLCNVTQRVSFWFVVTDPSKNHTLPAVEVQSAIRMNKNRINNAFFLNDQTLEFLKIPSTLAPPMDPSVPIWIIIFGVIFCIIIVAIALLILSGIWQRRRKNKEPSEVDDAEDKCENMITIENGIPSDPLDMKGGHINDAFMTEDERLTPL
# Assay Name: Example B-1: L-[3H]leucine uptake, liquid scintillation, in CHO cells with doxycycline-inducible expression of human SLC6A19 and TMEM27
# Assay type: cell-based
# Recorded Conditions: read-out: SLC6A19_Radioligand Uptake Assay IC50
Experimental Endpoint: IC50 (nM)
Reply with just the number (in nM).

For record CC(=O)N1CCC[C@@H](N(C)C(=O)NCc2cc3[nH]cc(C)c3cc2Cl)C1 [Compound 235] the listed IC50 is 673

For record CC(=O)N1CCC[C@@H](N(C(=O)NCc2cc3cc(Cl)ccc3[nH]2)C(C)C)C1 [Compound 221] the listed IC50 is 2410

For record CN(C(=O)NCc1cc2cc(Cl)ccc2[nH]1)[C@@H]1CCCN(C(=O)Cn2cc(CCN)nn2)C1 [Compound 134] the listed IC50 is 3770

For record CCc1ccc2[nH]c(CNC(=O)N(C)[C@@H]3CCCN(C(C)=O)C3)cc2c1 [Compound 217] the listed IC50 is 574

For record CC(=O)N1CCC[C@@H](N(C)C(=O)NCc2cc3cc(Cl)c(OCc4cc(C)on4)cc3[nH]2)C1 [Compound 135] the listed IC50 is 162

For record CC(=O)N1C[C@@H](C)C[C@@H](N(C)C(=O)NCc2cc3cc(Cl)ccc3[nH]2)C1 (racemic) [Compound 243] the listed IC50 is 262

For record CN(C(=O)NCc1cc2cc(Cl)ccc2[nH]1)[C@@H]1CCCN(C(=O)Cc2cn[nH]c2)C1 [Compound 199] the listed IC50 is 434

* * *

Kindly supply the reported IC50 values for the records listed here.
# Assayed System: human SLC6A19 (Homo sapiens)
# Construct: expressed in transfected cells
# Assay Name: Example B-1: L-[3H]leucine uptake, liquid scintillation, in CHO cells with doxycycline-inducible expression of human SLC6A19 and TMEM27
# Type: cell-based
# Recorded Conditions: read-out: SLC6A19_Radioligand Uptake Assay IC50
# Experimental: […] The supernatant was aspirated and the pellet was resuspended in 5 mL pre-warmed cell culture media. The resuspended cells were counted using the Countess Cell Counting Chamber (Invitrogen) and the cell concentration of the suspension was readjusted to 1 million live cells/mL using pre-warmed cell culture media. 25 uL/well (25,000 cells/well) of readjusted cell suspension was dispensed into Poly-D-Lysine 384-well white/clear plates (Corning, 354660) using a MultiDrop Combi (Thermo Electron Corp). […]
Reply with just the number (in nM).

For record "CN(C(=O)NCc1cc2cc(Cl)ccc2[nH]1)[C@@H]1CCCN(C(=O)Cc2ccncc2)C1" the listed IC50 is 656

For record CN(C(=O)NCc1cc2cc(Cl)ccc2[nH]1)[C@@H]1CCCN(C(=O)C2CCOC2)C1 (stereo partly shown) the listed IC50 is 367

For record "CC(=O)N1CCC[C@@H](N(C)C(=O)NCCc2cc(-c3cc4ccccc4[nH]3)c(Cl)cc2Cl)C1" the listed IC50 is 715

For record "CC(=O)N1CCC[C@@H](N(C)C(=O)NCCc2ccc(Cl)c(-c3cc4ccccc4[nH]3)c2)C1" the listed IC50 is 441

For record "CN(C(=O)NCc1cc2cc(Cl)ccc2[nH]1)[C@@H]1CCCN(C(=O)Cc2cnoc2)C1" the listed IC50 is 1160

For record "CN(C(=O)NCc1cc2cc(Cl)ccc2[nH]1)[C@@H]1CCCN(C(=O)CCO)C1" the listed IC50 is 637

For record CC1CC(C(=O)N2CCC[C@@H](N(C)C(=O)NCc3cc4cc(Cl)ccc4[nH]3)C2)C1 (stereo partly shown) the listed IC50 is 608

Hello, the source for this data is patent US20260184693A1, in case you need it.
